For each record, write down the corresponding AC50.
- Tested on: HTT mRNA
- Test Name: RT-qPCR splicing assay, HTT canonical junction (CJ) and alternative junction (AJ) mRNA
- Assay type: cell-based, human
- Assay Setup: Homo sapiens, increase in HTT alternative junction (AJ) mRNA, RT-qPCR; read-out: HTT AJ AC50

Noted for Cc1cn2nc(-c3ccc4c(=O)n([C@@H]5CCNC6(CC6)C5)ncc4c3)cc(C)c2n1 (stereo in doubt) : its AC50 reads < 100 nM

Noted for Cc1cn2cc(-c3ccc4c(=O)n(C5CCNCC5)cnc4c3)nc2c(C)n1 : its AC50 reads 1000 to 10000 nM

Noted for CN1CCC(n2cnc3cc(-c4cn[nH]c4)ccc3c2=O)CC1 : its AC50 reads > 10000 nM

Noted for Cc1cn2nc(-c3ccc4c(=O)n(C5CCNCC5)ncc4c3)cc(C)c2n1 : its AC50 reads < 100 nM

Noted for CCc1cn(C2CCNCC2)c(=O)c2c(F)cc(-c3cc(F)c4nc(C)cn4c3)cc12 : its AC50 reads 1000 to 10000 nM

Noted for Cc1cn2nc(-c3cc(F)c4c(=O)n(C5CCNCC5)cnc4c3)cc(C)c2n1 : its AC50 reads < 100 nM

Noted for Cc1cn2nc(-c3cc(F)c4c(=O)n([C@@H]5CCNC6(CC6)C5)ncc4c3)cc(C)c2n1 : its AC50 reads < 100 nM

Noted for CNC12CCC(n3ccc4nc(-c5cc6cn(C)nc6c(C)c5O)ncc4c3=O)(CC1)C2 : its AC50 reads 1000 to 10000 nM

Noted for Cc1cn2cc(-c3ccc4c(=O)n(C5CCN(C)CC5)cnc4c3F)cc(F)c2n1 : its AC50 reads 1000 to 10000 nM

Noted for Cc1cn2nc(-c3ccc4c(=O)n(C5CCNC6(CC6)C5)ncc4n3)cc2c(C)n1 (stereo not shown) : its AC50 reads 100 to 1000 nM

Noted for Cn1cc2cc(-c3ncc4c(=O)n(C5CCNCC5)ccc4n3)c(O)cc2n1 : its AC50 reads 100 to 1000 nM

Noted for Cc1cn2cc(-c3cc(F)c4c(=O)n(C5CCNCC5)cnc4c3)cc(C#N)c2n1 : its AC50 reads 1000 to 10000 nM

Noted for Cn1cc2c(n1)CCN(c1cc(F)c3c(=O)n(C4CCNCC4)cnc3c1)C2 : its AC50 reads > 10000 nM

Noted for Cc1cn2cc(-c3cc(F)c4c(=O)n([C@H]5CC[C@@H](N(C)C)CC5)ccc4c3)cc(F)c2n1 : its AC50 reads 100 to 1000 nM

Noted for Cc1cn2nc(-c3ccc4c(c3)CCN(C3CCNC(C)C3)C4=O)cc(C)c2n1 (stereo not shown) : its AC50 reads 1000 to 10000 nM

Noted for Cc1c(O)c(-c2nc(C)c3c(=O)n([C@H]4CCNC5(CC5)C4)ccc3n2)cc2cn(C)nc12 : its AC50 reads > 10000 nM

----------
- Test system: MYB mRNA
- Test Name: RT-qPCR splicing assay, MYB canonical junction (CJ) and alternative junction (AJ) mRNA
- Type: cell-based, human
- Assay Setup: Homo sapiens; increase in MYB alternative junction (AJ) mRNA, RT-qPCR; read-out: MYB AJ AC50
Where a name gives a salt, the structure may show the parent alone.
For each record, write down the corresponding AC50.

Noted for Cc1cc(-c2ccc3ncn(C4CCNCC4)c(=O)c3c2)cc2cn(C)nc12 : its AC50 reads > 10000 nM

Noted for CCN1CCC(n2ncc3cc(-c4cc(C)c5nc(C)cn5n4)cc(O)c3c2=O)CC1 : its AC50 reads < 100 nM

Noted for Cc1cn2nc(-c3ccc4c(=O)n(C5CCNCC5)ccc4c3)cc(Oc3cccc(F)c3)c2n1 [Compound 545, hydrochloride] : its AC50 reads < 100 nM

Noted for CNc1cc(-c2cc(F)c3nc(C)cn3c2)cc2ncn(C3CCNCC3)c(=O)c12 : its AC50 reads 1000 to 10000 nM

Noted for CCN1CCC(n2ccc3cc(-c4cc(C)c5nn(C)cc5c4)ncc3c2=O)CC1 : its AC50 reads 1000 to 10000 nM

Noted for CN1CCC(n2cnc3cc(-c4cn[nH]c4)ccc3c2=O)CC1 : its AC50 reads > 10000 nM

Noted for Cc1c(O)c(-c2ncc3c(=O)n([C@H]4CCN[C@H](C)C4)ccc3n2)cc2cn(C)nc12 : its AC50 reads < 100 nM

Noted for Cn1cc2cc(-c3ncc4c(=O)n(C56CCC(N)(CC5)C6)ccc4n3)c(O)cc2n1 : its AC50 reads 100 to 1000 nM

Noted for Cc1c(O)c(-c2ccc3c(=O)n([C@@H]4CCNC5(CC5)C4)ccc3n2)cc2cn(C)nc12 : its AC50 reads < 100 nM

Noted for CNc1cc(-c2cc(C)c3nc(C)cn3n2)cc2ccn([C@H]3CCNC3)c(=O)c12 : its AC50 reads 1000 to 10000 nM

Noted for Cc1c(O)c(-c2ccc3c(=O)n([C@H]4CC[C@H](N(C)C)CC4)ccc3n2)cc2cn(C)nc12 : its AC50 reads < 100 nM

Noted for Cc1cc(-c2cc(O)c3c(=O)n(C4CCNC5(CC5)C4)ncc3c2)cc2cn(C)nc12 (centres unmarked) : its AC50 reads 1000 to 10000 nM

Noted for Cc1cn2nc(-c3cc(O)c4c(=O)n(C5CCNC5)cc(C)c4c3)cc(C)c2n1 (centres unmarked) : its AC50 reads 1000 to 10000 nM

Noted for Cn1cc2nc(-c3ccc4c(=O)n(C5CCNC6(CC6)C5)ncc4c3)ccc2n1 (centres unmarked) : its AC50 reads 100 to 1000 nM

Noted for Cc1cn2cc(-c3ncc4c(=O)n([C@@H]5CCNC6(CC6)C5)ccc4n3)cc(F)c2n1 : its AC50 reads 100 to 1000 nM

Noted for Cc1cn2cc(-c3ncc4c(=O)n([C@H]5CCN[C@@H](C)C5)ccc4n3)cc(F)c2n1 : its AC50 reads < 100 nM

Noted for Cc1cn2nc(-c3ccc4c(=O)n([C@H]5CCNC6(CCC6)C5)ncc4n3)cc(C)c2n1 : its AC50 reads 100 to 1000 nM

Noted for Cc1cn2cc(-c3cc(F)c4c(=O)n(C5CCNCC5)cnc4c3)cc(C#N)c2n1 : its AC50 reads 100 to 1000 nM

Noted for Cc1cn2cc(-c3ccc4c(=O)n(C5CCNCC5)ccc4n3)cc(C)c2n1 : its AC50 reads < 100 nM

Noted for Cc1cn2nc(-c3ccc4nc(N5CCNC6(CC6)C5)[nH]c(=O)c4c3)cc(C)c2n1 : its AC50 reads 100 to 1000 nM

Noted for Cc1cn2cc(-c3cc(F)c4c(=O)n(C5CCNC6(CC6)C5)ccc4c3)cc(F)c2n1 (centres unmarked) : its AC50 reads > 10000 nM

Noted for Cc1cc(-c2cc(F)c3c(=O)n(C4CCNC5(CC5)C4)ccc3c2)cc2c1nc(C)n2C (centres unmarked) : its AC50 reads > 10000 nM

Noted for Cc1cn2cc(-c3cc(F)c4c(=O)n([C@H]5CNC[C@H]5C)ccc4c3)cc(F)c2n1 : its AC50 reads 1000 to 10000 nM

Noted for Cc1cn2cc(-c3ccc4c(=O)n(C5CCNCC5)cnc4c3)ncc2n1 : its AC50 reads 100 to 1000 nM

Noted for Cc1cn2cc(-c3ccc4c(=O)n([C@H]5CCN[C@H](C)C5)cnc4c3)cc(F)c2n1 : its AC50 reads < 100 nM

Noted for Cc1c(O)c(-c2ncc3c(=O)n([C@H]4CC[C@H](N)C4)ccc3n2)cc2cn(C)nc12 : its AC50 reads 100 to 1000 nM

Noted for Cc1cn2cc(-c3ccc4c(=O)n([C@H]5CCNC6(CC6)C5)ccc4n3)cc(F)c2n1 : its AC50 reads 100 to 1000 nM

Noted for Cc1cn2cc(-c3cc(F)c4c(=O)n(C5=CCNCC5)cnc4c3)cc(F)c2n1 : its AC50 reads < 100 nM

Noted for Cn1cc2c(n1)CCN(c1cc(F)c3c(=O)n(C4CCNCC4)cnc3c1)C2 : its AC50 reads 1000 to 10000 nM

Noted for Cc1c(O)c(-c2ccc3c(=O)n(C45CCC(N)(CC4)C5)ccc3n2)cc2cn(C)nc12 : its AC50 reads < 100 nM

Noted for Cc1cn2nc(-c3ccc4c(=O)n(C5CCNC6(CCC6)C5)ncc4n3)cc(C)c2n1 (centres unmarked) : its AC50 reads 1000 to 10000 nM

Noted for Cn1cc2cc(-c3ccc4c(=O)n(C5CCNCC5)cnc4c3)cc(F)c2n1 : its AC50 reads 100 to 1000 nM

----------
For each record, write down the corresponding IC50.
- System: Target C
- Test Name: HiBiT protein abundance assay, Target C HiBiT K562 cell line
- Type: cell-based
- Assay Setup: Homo sapiens; HiBiT lytic detection, modified K562 cells, 24 hours, top dose 10 μM; read-out: Effect on protein abundance, Target C (IC50)

Noted for Cc1cn2nc(-c3ccc4c(=O)n(C5CCNCC5)ncc4n3)cc(C)c2n1 : its IC50 reads < 100 nM

Noted for Cc1cn2nc(-c3ccc4c(=O)n([C@@H]5CCNC6(CCC6)C5)ncc4n3)cc(C)c2n1 : its IC50 reads < 100 nM

Noted for Cc1cn2nc(-c3ccc4c(=O)n([C@H]5CCN(C)C6(CC6)C5)ncc4n3)cc(C)c2n1 : its IC50 reads 100 to 1000 nM

Noted for CN1CCC(Nc2ccc3ncn(-c4ccc5nn(C)cc5c4)c(=O)c3c2)CC1 : its IC50 reads > 10000 nM

Noted for Cc1cn2nc(-c3ccc4c(=O)n([C@@H]5CCN(C)[C@H](C)C5)ncc4n3)cc(C)c2n1 : its IC50 reads 100 to 1000 nM

Noted for Cc1cn2nc(-c3ccc4c(=O)n(C5CCNC6(CCC6)C5)ncc4n3)cc(C)c2n1 (stereo not drawn) : its IC50 reads 1000 to 10000 nM

Noted for Cc1cn2nc(-c3ccn4c(=O)c(C5CCNCC5)ccc4c3)cc(C)c2n1 : its IC50 reads < 100 nM

Noted for Cc1cn2nc(-c3cnc4c(=O)n(C5CCNCC5)ncc4c3)cc(C)c2n1 : its IC50 reads 1000 to 10000 nM

Noted for Cc1c(O)c(-c2ncc3c(=O)n([C@@H]4CC[C@@H](N)C4)ccc3n2)cc2cn(C)nc12 : its IC50 reads 1000 to 10000 nM
